OBSERVATION_TYPE: melting point

>  <COMPOUND>
O=C1NC(=O)C(Cc2ccc(O)c3c2CCC(=O)N3Cc2ccccc2)S1 (stereo not shown)

>  <REPORTED_RESULT>
213.2 to 213.7 °C

$$$$
>  <COMPOUND>
COc1ccc(CC2SC(=O)NC2=O)c2c1NC(=O)CC2 (stereo not shown)

>  <REPORTED_RESULT>
253 to 256 °C

$$$$
>  <COMPOUND>
COc1ccc(CC2SC(=O)NC2=O)c2c1N(CC(=O)O)C(=O)CC2 (stereo not shown)

>  <REPORTED_RESULT>
251 to 255 °C

$$$$
>  <COMPOUND>
Cn1c(=O)cc(CC2SC(=O)NC2=O)c2ccccc21 (stereo not shown)

>  <REPORTED_RESULT>
246 to 248 °C

$$$$
>  <COMPOUND>
COc1ccc(CC2SC(=O)NC2=O)c2c1N(Cc1ccc(N)cc1)C(=O)CC2 (stereo not shown)

>  <REPORTED_RESULT>
174.1 to 174.8 °C

$$$$
>  <COMPOUND>
COc1ccc(CC2SC(=O)NC2=O)c2c1N(Cc1ccc(NC(=O)c3cccnc3)cc1)C(=O)CC2 (stereo not shown)

>  <REPORTED_RESULT>
233 to 234.2 °C

$$$$
>  <COMPOUND>
COc1ccc(CC2SC(=O)NC2=O)c2c1N(C)C(=O)CC2 (stereo not shown)

>  <REPORTED_RESULT>
204 to 208 °C

$$$$
>  <COMPOUND>
COC(=O)c1ccc(CN2C(=O)CCc3c(CC4SC(=O)NC4=O)ccc(OC)c32)cc1 (stereo not shown)

>  <REPORTED_RESULT>
193.1 to 195.5 °C

$$$$
>  <COMPOUND>
O=C1NC(=S)SC1Cc1cccc2c1CCC(=O)N2Cc1ccc(-c2ccccc2)cc1 (stereo not shown)

>  <REPORTED_RESULT>
186.3 to 187.1 °C

$$$$
>  <COMPOUND>
CCC(=O)Nc1ccc(CN2C(=O)CCc3c(CC4SC(=O)NC4=O)ccc(OC)c32)cc1 (stereo not shown)

>  <REPORTED_RESULT>
198.3 to 200.3 °C

$$$$

The measured values listed here are drawn from patent US7777038B2.
